Molecular target: Alpha-2B adrenergic receptor (Homo sapiens)
Sequence (P18089 whole entry): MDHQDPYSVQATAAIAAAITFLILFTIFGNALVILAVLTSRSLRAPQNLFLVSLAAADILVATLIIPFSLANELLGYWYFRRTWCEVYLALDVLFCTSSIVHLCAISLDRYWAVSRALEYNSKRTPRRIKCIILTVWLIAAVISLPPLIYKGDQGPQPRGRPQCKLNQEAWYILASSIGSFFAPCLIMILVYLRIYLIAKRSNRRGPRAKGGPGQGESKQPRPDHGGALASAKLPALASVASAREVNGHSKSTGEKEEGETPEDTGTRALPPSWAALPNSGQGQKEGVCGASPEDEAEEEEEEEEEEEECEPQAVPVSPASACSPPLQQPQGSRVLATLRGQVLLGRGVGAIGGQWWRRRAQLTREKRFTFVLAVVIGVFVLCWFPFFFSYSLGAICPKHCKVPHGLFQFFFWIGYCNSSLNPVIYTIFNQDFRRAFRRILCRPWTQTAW
Assay: GPCRScan assay: inhibition of Alpha2B
Parameters: radioligand conc. used [nm] 1.5 – 2.0, parental cells HEKT
Conditions: read-out: Ki
Outcome measure: Ki (µM)
Field format: number, assumed µM, no unit text.

QUERY: Using the record for CN1C(=O)[C@@H](N2CCc3c(nn(Cc4ccccc4)c3Br)C2=O)COc2ccccc21 [TP-030-2] , report its Ki.
RESULT: 2.87

====

Target: Testis-specific serine/threonine-protein kinase 1 (Homo sapiens, UniProt Q9BXA7)
Sequence (Q9BXA7 whole entry): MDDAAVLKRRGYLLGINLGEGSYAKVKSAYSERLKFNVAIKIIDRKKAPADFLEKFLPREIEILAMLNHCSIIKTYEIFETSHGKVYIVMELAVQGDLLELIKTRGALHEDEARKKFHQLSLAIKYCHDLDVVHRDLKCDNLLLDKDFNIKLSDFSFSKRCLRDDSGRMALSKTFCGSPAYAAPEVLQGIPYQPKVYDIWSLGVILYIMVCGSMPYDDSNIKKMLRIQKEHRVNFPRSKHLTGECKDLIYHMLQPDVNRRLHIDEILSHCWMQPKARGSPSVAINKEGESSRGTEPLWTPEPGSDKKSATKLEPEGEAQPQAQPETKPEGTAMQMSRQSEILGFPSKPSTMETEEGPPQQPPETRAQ
Outcome measure: IC50 (µM)
Field format: number, assumed µM, no unit text.

QUERY: Using the record for CN1C(=O)[C@@H](N2CCc3c(nn(Cc4ccccc4)c3Br)C2=O)COc2ccccc21 , report its IC50.
RESULT: 1

====

Molecular target: SRSF protein kinase 1 (Homo sapiens, UniProt Q96SB4)
Sequence (Q96SB4 whole entry): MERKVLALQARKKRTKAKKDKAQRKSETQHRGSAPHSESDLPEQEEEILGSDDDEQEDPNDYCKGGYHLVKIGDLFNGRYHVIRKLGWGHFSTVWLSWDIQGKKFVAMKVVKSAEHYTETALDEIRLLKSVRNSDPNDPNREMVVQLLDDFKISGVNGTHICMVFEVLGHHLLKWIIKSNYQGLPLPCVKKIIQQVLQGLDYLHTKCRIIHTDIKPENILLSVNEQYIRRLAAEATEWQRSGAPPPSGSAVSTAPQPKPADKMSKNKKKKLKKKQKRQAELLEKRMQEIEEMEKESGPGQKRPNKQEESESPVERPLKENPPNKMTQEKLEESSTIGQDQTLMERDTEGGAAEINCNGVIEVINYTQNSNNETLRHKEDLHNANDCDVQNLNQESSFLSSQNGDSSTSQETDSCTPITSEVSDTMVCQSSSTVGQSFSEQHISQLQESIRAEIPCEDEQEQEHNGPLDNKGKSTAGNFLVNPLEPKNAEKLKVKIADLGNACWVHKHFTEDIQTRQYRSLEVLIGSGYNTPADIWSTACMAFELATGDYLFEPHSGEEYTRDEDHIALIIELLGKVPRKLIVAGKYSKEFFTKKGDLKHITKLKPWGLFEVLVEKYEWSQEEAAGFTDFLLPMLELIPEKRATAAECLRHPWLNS
Outcome measure: IC50 (nM)
Field format: number, assumed nM, no unit text.

QUERY: Using the record for CN1C(=O)[C@@H](N2CCc3c(nn(Cc4ccccc4)c3Br)C2=O)COc2ccccc21 , report its IC50.
RESULT: 1000

====

Molecular target: Serine/threonine-protein kinase VRK1 (Homo sapiens, UniProt Q99986)
Sequence (Q99986 whole entry): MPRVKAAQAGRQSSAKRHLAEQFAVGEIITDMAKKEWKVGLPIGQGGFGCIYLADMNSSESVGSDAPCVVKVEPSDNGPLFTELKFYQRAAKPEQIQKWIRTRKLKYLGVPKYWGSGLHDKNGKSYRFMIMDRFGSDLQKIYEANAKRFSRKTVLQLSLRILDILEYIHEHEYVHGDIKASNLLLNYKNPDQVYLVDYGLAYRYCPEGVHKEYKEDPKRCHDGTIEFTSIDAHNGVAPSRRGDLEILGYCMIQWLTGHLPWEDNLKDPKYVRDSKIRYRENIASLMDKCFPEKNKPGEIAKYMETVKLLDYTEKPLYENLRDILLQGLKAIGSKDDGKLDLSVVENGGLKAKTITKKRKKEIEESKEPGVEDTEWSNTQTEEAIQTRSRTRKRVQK
Outcome measure: IC50

QUERY: Using the record for CN1C(=O)[C@@H](N2CCc3c(nn(Cc4ccccc4)c3Br)C2=O)COc2ccccc21 , report its IC50.
RESULT: 1000 nM

====

Biological target: Homeodomain-interacting protein kinase 2 (Homo sapiens)
Sequence (Q9H2X6 whole entry): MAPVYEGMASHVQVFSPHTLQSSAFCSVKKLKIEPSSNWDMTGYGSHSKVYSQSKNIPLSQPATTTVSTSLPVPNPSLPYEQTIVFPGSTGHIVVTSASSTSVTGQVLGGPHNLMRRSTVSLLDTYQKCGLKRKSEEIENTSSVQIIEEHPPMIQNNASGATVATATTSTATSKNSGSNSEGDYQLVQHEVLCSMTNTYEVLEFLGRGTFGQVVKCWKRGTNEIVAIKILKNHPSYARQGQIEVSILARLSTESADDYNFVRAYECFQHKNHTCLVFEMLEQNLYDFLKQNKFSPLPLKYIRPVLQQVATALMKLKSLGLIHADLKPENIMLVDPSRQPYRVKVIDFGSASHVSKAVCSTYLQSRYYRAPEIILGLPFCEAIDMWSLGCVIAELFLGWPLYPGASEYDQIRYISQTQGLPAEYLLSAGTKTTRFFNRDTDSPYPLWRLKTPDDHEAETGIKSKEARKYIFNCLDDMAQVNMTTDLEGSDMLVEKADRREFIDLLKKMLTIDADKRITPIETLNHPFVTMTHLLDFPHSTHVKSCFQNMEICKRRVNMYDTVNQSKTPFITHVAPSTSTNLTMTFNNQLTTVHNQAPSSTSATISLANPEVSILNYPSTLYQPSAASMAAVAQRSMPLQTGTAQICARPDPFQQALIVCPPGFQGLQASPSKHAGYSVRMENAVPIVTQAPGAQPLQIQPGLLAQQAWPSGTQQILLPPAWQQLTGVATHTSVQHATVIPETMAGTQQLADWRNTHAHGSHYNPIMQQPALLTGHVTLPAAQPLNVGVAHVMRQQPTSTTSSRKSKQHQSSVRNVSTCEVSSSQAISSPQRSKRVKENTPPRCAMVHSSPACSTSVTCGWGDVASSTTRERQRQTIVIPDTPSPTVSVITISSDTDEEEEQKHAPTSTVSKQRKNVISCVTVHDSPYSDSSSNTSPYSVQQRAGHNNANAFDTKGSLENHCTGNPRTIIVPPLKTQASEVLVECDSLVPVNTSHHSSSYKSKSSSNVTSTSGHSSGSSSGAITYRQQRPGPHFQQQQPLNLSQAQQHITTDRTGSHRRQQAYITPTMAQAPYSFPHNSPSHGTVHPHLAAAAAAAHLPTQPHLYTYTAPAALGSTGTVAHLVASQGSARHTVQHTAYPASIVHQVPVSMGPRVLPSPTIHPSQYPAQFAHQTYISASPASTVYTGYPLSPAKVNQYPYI
Outcome measure: pIC50
pIC50 here: minus log base 10 of the concentration, concentration in moles per litre.

QUERY: Using the record for CN1C(=O)[C@@H](N2CCc3c(nn(Cc4ccccc4)c3Br)C2=O)COc2ccccc21 [TP-030-2] , report its pIC50.
RESULT: 6.00
